# assayTarget: rat RXFP2 (Rattus norvegicus)
# Sequence (F7EMH8 20-737): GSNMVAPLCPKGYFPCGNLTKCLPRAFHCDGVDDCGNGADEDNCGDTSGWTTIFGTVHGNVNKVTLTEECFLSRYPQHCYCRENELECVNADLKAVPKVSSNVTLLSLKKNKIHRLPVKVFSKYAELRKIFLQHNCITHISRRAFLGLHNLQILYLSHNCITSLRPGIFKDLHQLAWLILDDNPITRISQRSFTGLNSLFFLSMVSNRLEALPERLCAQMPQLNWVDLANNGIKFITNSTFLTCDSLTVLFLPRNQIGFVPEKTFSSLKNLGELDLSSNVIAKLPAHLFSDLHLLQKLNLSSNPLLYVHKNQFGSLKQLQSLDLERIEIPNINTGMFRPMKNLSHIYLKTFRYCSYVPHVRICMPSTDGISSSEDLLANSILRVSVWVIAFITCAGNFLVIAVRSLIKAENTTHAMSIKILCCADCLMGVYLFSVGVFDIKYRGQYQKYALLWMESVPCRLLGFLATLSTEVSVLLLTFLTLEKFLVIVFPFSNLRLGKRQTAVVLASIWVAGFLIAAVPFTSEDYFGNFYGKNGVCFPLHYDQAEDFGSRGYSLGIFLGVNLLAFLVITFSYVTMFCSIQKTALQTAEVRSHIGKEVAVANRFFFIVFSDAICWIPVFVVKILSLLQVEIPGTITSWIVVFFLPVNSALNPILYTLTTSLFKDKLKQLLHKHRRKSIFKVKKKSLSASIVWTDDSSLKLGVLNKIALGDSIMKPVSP
# assaySummary: INSL3-stimulated CYP11B1 mRNA expression in H295R stably expressing rat RXFP2
# Format: cell-based
# Parameters: expressed in transfected cells
# conditionLabel: 48 h of treatment; read-out: EC50 on CYP11B1 mRNA expression, H295R-rRXFP2
pEC50: −log10 of the molar value. Bridge positions count the residues as written; N and C are the ends. Ends that are not written are not given here. I, II: the chains in the order shown.
reportedEndpoint: pEC50

>  <substance>
I: PTPEMREKLCGHHFVRALVRVCGGPRWSTEA / II: AAATNPARYCCLSGCTQQDLLTLCPY (disulfide I:10-II:11, I:22-II:24, II:10-II:15) [INSL3, Insulin-like peptide 3]

>  <assayTarget>
rat RXFP2 (Rattus norvegicus)

>  <quantitativeResult>
9.52

$$$$
